Exercise: for every item that follows, state its recorded IC50.
- assayed-target: hNaV1.7 (Homo sapiens, UniProt Q15858)
- Construct: expressed in transfected cells; host or cells: HEK293
- Sequence (Q15858 whole entry): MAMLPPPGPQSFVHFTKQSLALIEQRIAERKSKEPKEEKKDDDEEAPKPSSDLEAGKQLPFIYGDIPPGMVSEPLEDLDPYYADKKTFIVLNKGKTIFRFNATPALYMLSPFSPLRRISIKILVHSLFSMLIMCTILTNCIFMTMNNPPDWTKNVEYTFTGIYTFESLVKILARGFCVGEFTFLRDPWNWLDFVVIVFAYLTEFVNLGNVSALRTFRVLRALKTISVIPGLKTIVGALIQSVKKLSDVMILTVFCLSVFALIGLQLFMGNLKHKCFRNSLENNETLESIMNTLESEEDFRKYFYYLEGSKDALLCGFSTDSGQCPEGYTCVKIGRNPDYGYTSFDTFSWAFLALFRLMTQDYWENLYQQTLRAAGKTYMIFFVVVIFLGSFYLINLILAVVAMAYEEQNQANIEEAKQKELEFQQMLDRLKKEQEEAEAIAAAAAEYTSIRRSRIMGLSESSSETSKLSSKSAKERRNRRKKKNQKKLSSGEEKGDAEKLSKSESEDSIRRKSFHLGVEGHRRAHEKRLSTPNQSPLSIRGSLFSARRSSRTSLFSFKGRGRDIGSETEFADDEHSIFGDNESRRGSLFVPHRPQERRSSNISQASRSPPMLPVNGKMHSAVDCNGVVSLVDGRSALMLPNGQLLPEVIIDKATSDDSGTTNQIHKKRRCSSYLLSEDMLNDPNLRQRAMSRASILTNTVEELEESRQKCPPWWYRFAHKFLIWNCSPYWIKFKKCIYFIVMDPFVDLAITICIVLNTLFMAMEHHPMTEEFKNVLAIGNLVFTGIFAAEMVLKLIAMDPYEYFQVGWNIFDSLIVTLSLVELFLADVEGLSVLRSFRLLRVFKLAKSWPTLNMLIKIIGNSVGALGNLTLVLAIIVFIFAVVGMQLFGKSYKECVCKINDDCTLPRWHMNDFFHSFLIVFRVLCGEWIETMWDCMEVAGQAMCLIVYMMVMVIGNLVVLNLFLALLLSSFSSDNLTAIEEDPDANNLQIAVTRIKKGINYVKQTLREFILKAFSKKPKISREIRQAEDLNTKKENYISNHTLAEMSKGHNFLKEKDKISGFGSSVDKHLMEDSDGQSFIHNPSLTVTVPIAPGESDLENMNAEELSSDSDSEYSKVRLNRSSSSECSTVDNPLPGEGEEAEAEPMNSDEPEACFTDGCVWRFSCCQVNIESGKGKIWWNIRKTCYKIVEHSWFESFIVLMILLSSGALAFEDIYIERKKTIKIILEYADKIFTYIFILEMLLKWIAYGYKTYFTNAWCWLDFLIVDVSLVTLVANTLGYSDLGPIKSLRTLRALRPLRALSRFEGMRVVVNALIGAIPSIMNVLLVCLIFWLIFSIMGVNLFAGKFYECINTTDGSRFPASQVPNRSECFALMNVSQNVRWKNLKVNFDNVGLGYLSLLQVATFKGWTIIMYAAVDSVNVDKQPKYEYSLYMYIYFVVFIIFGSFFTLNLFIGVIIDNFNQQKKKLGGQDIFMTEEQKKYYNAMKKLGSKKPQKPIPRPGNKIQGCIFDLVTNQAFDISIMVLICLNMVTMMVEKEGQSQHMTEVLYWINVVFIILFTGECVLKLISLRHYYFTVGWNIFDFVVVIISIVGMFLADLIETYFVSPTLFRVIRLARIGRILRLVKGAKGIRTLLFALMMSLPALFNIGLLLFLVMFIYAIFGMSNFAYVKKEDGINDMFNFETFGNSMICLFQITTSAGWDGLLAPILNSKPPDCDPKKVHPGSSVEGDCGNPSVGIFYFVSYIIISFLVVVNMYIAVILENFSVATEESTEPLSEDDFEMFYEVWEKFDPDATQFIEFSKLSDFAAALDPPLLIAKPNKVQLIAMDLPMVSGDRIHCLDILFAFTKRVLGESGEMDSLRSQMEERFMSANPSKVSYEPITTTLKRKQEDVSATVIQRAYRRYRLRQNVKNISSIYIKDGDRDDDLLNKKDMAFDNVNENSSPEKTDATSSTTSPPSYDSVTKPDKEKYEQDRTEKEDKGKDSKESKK
- protocol-details: QPatch NaV1.7 assay (whole-cell patch clamp, QPatch16x)
- Format: cell-based
- conditions-used: holding voltage V1/2 SSI (half of channels inactivated), HEK293-hNaV1.7 cells, read-out: QP Nav1.7 SSI vhalf pIC50 (converted)
Counter-ions that a name gives are not always drawn.
Answers are plain numbers, in µM.

Solved entries (count: 3):
Cc1cc(-c2ccc(OC(C)C)cc2)cc([C@@H]2CC[C@@]3(CCN(C)C3=O)N2)n1 [Example 86, hydrochloride] = 10
CN1CC[C@]2(CC[C@H](c3cc(-c4ccc(C(F)(F)F)cc4)c(F)cn3)N2)C1=O [Example 61, hydrochloride] = 6.31
CCOc1ccc(F)c(-c2cc([C@@H]3CC[C@@]4(CCN(C)C4=O)N3)nc(C)c2C)c1 [Example 142, hydrochloride] = 0.794

Now for the molecule whose IC50 we want.
Please fill in: IC50 reported for CCC(=O)c1ccc(F)c(-c2ccnc([C@H]3CC[C@@]4(CCN(C)C4=O)N3)c2)c1 [Example 257, hydrochloride] = 63.1
